# System: OVCAR-5 ovarian
# protocolText: NCI-60 one-dose screen, 48 h (100 = growth as untreated, 0 = no growth, -100 = all killed)
# conditionDescription: 10 µM unless noted
About 83,000 compounds went through this panel and 20% of them were active in at least one assay; those are over-represented in the sample as a whole.
measuredAttribute: growth (%)
Hi! Could you send only the number? It should be in %, unit omitted.

Study these solved cases before continuing.
>>> readoutvalue("CCOC(=O)C(=Cc1ccc(-c2ccccc2)cc1)C(=O)OCC")
71
>>> readoutvalue("COC(=O)c1nc(-c2ccccc2)oc1S(=O)(=O)NCC(c1ccc(Cl)cc1)N1CCOCC1 (stereo not given)")
77.7
>>> readoutvalue("COc1ccc2[nH]cc(-c3nc(-c4c[nH]c5c(Cl)nccc45)cs3)c2c1")
99.9
>>> readoutvalue("COc1ccc(/C=C(/C(=O)n2cnnn2)c2cc(OC)c(OC)c(OC)c2)cc1")
41.2
>>> readoutvalue("COc1ccc(/C=C/C(=O)c2ccc(NC(=O)CSc3nc4c([nH]3)c(=O)n(C)c(=O)n4C)cc2)cc1OC")
83.9

Item: COc1cc(OC)cc(-c2ccc(-c3ccc(C(=N)N)o3)o2)c1 | growth: 83.5

growth reading for N#C/C(=C\C=C\c1ccc(-c2cc(Cl)ccc2Cl)o1)c1nc2ccccc2s1 : 102

growth measured on Cc1ccc2c(-c3nnc(N)s3)cc(=O)oc2c1C = 114

growth reported for this molecule C[C@]1(O)CC(=O)[C@]2(O)C3=C(C=C[C@]2(O)C1)C(=O)c1c(O)cccc1C3=O : 38.8

Measured growth, COc1ccccc1C(=O)Nc1cccc(NC(=O)c2ccoc2C)c1 : 85.3
